# Tested on: U251 CNS
# assay-overview: NCI tumour cell line growth inhibition, 48 h
# TGI per record follows
State just the number; it will be interpreted in µM.

Examples with their reported TGI follow.
[[record]]
compound = "CCN1CCN(c2nc(C)cc(N(CCCNc3ccnc4cc(Cl)ccc34)Cc3ccco3)n2)CC1"
value_measured = 6.26

[[record]]
compound = "CC(C)(C)n1cc(-c2ccnc(NCCCNS(=O)(=O)c3ccc(Cl)cc3)c2)c(-c2cccc(O)c2)n1"
value_measured = 3.42


Task: I am curious: what TGI value has been reported for O=C1c2c(O)cccc2C(C(=O)CCCC(=O)C2c3cccc(O)c3C(=O)c3c(O)cccc32)c2cccc(O)c21 ?
Result: 1.88

Task: Would you kindly repeat that for CCN1CCN(c2cc(C)nc(NCc3cc(Nc4ccnc5cc(Cl)ccc45)ccc3F)n2)CC1 ?
Result: 12.6

Task: Would you kindly repeat that for CN(/C(=N\O)c1ccccc1)c1ccccc1 ?
Result: 37.6

Task: Would you kindly repeat that for CCCCCC/C=C/CCCCCCCc1cccc(O)c1C(=O)O ?
Result: 88.2

Task: Would you kindly repeat that for CC1=NN(c2cccc(Cl)c2)C2(C1)SCC(=O)N2c1nc2ccccc2s1 (centres undefined) ?
Result: 75.2

The reported numbers originate from PubChem BioAssay (NCI).
